# Test system: SK-MEL-5
# test.protocol: NCI one-dose screen
# Type: cell-based
# experimental.context: Homo sapiens; SK-MEL-5, 10 µM; read-out: Growth Percent
Field: activity at 10 µM. Provide a value for each of the molecules that follow.
Give bare numbers, in %.

| molecule | units.text | activity at 10 µM |
| --- | --- | --- |
| CN(C)c1ccc(/C=C/C(=O)c2ccc(-n3cc(CN4CCN(c5cc6c(cc5F)c(=O)c(C(=O)O)cn6C5CC5)CC4)nn3)cc2)cc1 [Compound 4h] | % | 86.2 |
| Cc1ccc(/C=C/C(=O)c2ccc(-n3cc(CN4CCN(c5cc6c(cc5F)c(=O)c(C(=O)O)cn6C5CC5)CC4)nn3)cc2)cc1 [Compound 4f] | % | 91.1 |

Each of the following entries comes with a recorded value; kindly state activity at 10 µM for each.
1. O=C(/C=C/c1ccc(Br)cc1)c1ccc(-n2cc(CN3CCN(c4cc5c(cc4F)c(=O)c(C(=O)O)cn5C4CC4)CC3)nn2)cc1 [Compound 4d]
2. COc1cc(/C=C/C(=O)c2ccc(-n3cc(CN4CCN(c5cc6c(cc5F)c(=O)c(C(=O)O)cn6C5CC5)CC4)nn3)cc2)cc(OC)c1OC [Compound 4j]

[79.7, 50.9]

---

# System: 786-0
# test.protocol: NCI one-dose screen
# Format: cell-based
# experimental.context: Homo sapiens; 786-0, 10 µM; read-out: Growth Percent
Field: activity at 10 µM. Provide a value for each of the compounds that follow.
Give bare numbers, in %.

Previously resolved entries follow.
| chemical.smiles | endpoint.value |
| --- | --- |
| CN(C)c1ccc(/C=C/C(=O)c2ccc(-n3cc(CN4CCN(c5cc6c(cc5F)c(=O)c(C(=O)O)cn6C5CC5)CC4)nn3)cc2)cc1 | 65 |
| COc1ccc(/C=C/C(=O)c2ccc(-n3cc(CN4CCN(c5cc6c(cc5F)c(=O)c(C(=O)O)cn6C5CC5)CC4)nn3)cc2)cc1OC | 71.9 |
| Cc1ccc(/C=C/C(=O)c2ccc(-n3cc(CN4CCN(c5cc6c(cc5F)c(=O)c(C(=O)O)cn6C5CC5)CC4)nn3)cc2)cc1 | 76.7 |
| O=C(/C=C/c1ccc(F)cc1)c1ccc(-n2cc(CN3CCN(c4cc5c(cc4F)c(=O)c(C(=O)O)cn5C4CC4)CC3)nn2)cc1 | 33.2 |
| O=C(/C=C/c1cccc(Cl)c1)c1ccc(-n2cc(CN3CCN(c4cc5c(cc4F)c(=O)c(C(=O)O)cn5C4CC4)CC3)nn2)cc1 | 53.9 |
| COc1cc(/C=C/C(=O)c2ccc(-n3cc(CN4CCN(c5cc6c(cc5F)c(=O)c(C(=O)O)cn6C5CC5)CC4)nn3)cc2)cc(OC)c1OC | 43.6 |

Query compound follows.
Any idea what activity at 10 µM was measured for COc1ccc(/C=C/C(=O)c2ccc(-n3cc(CN4CCN(c5cc6c(cc5F)c(=O)c(C(=O)O)cn6C5CC5)CC4)nn3)cc2)cc1 ?
78.1

---

Field: activity at 10 µM. Provide a value for each of the compounds that follow.
# Test system: MCF7
# test.protocol: NCI one-dose screen
# Format: cell-based
# experimental.context: Homo sapiens; MCF7, 10 µM; read-out: Growth Percent
Numbers only, in %.

Previously resolved entries follow.
| chemical.smiles | endpoint.value |
| --- | --- |
| COc1ccc(/C=C/C(=O)c2ccc(-n3cc(CN4CCN(c5cc6c(cc5F)c(=O)c(C(=O)O)cn6C5CC5)CC4)nn3)cc2)cc1 | 51.2 |
| O=C(/C=C/c1ccc(F)cc1)c1ccc(-n2cc(CN3CCN(c4cc5c(cc4F)c(=O)c(C(=O)O)cn5C4CC4)CC3)nn2)cc1 | 24.2 |
| O=C(/C=C/c1ccc(Br)cc1)c1ccc(-n2cc(CN3CCN(c4cc5c(cc4F)c(=O)c(C(=O)O)cn5C4CC4)CC3)nn2)cc1 | 61.4 |

Any idea what activity at 10 µM was measured for O=C(/C=C/c1ccccc1)c1ccc(-n2cc(CN3CCN(c4cc5c(cc4F)c(=O)c(C(=O)O)cn5C4CC4)CC3)nn2)cc1 ?
72.9
